assayed-target: hM1 (Homo sapiens, UniProt P11229)
Sequence (P11229 whole entry): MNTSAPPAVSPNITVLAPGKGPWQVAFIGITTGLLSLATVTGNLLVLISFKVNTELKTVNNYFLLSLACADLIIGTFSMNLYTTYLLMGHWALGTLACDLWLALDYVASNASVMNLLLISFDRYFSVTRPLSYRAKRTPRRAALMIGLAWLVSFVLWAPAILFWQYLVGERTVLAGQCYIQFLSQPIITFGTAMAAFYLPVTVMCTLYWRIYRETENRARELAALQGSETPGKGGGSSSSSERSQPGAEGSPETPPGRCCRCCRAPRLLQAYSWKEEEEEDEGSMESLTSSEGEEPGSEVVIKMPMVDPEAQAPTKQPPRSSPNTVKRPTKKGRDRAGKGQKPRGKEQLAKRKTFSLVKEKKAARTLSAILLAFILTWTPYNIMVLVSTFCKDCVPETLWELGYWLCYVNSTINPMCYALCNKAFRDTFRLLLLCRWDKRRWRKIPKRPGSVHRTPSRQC
protocol-notes: radioligand competition binding
pKi: −log10 of the molar value.
endpoint: pKi

[[record]]
molecule = "CN1CCN(C2=Nc3ccccc3Nc3ccccc32)CC1 [DCZ]"
value_reported = 7.08


----------
assayed-target: hM3 (Homo sapiens)
Sequence (P20309 whole entry): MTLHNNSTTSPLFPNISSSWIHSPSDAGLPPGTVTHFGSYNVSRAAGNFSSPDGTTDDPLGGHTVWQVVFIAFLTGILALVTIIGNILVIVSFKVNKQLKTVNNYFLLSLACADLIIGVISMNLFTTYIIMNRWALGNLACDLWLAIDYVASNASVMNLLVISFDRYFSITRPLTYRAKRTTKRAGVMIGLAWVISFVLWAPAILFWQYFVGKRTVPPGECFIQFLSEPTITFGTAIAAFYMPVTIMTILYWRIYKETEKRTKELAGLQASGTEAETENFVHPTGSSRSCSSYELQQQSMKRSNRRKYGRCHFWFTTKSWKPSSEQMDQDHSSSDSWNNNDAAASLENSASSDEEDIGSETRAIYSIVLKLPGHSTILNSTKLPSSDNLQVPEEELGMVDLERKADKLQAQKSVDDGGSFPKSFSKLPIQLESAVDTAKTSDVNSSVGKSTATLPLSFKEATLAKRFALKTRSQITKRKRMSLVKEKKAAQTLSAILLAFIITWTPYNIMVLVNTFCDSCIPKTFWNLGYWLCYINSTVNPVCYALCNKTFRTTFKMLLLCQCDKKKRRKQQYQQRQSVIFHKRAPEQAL
protocol-notes: biochemical
Assay type: binding
pKi: −log10 of the molar value.
endpoint: pKi

[[record]]
compound_structure = "C[N+]1([O-])CCN(C2=Nc3cc(Cl)ccc3Nc3ccccc32)CC1"
value_reported = 5.59

[[record]]
compound_structure = "CN1CCN(C2=Nc3ccccc3Nc3ccccc32)CC1"
value_reported = 6.64


----------
assayed-target: hM5 (Homo sapiens, UniProt P08912)
Sequence (P08912 whole entry): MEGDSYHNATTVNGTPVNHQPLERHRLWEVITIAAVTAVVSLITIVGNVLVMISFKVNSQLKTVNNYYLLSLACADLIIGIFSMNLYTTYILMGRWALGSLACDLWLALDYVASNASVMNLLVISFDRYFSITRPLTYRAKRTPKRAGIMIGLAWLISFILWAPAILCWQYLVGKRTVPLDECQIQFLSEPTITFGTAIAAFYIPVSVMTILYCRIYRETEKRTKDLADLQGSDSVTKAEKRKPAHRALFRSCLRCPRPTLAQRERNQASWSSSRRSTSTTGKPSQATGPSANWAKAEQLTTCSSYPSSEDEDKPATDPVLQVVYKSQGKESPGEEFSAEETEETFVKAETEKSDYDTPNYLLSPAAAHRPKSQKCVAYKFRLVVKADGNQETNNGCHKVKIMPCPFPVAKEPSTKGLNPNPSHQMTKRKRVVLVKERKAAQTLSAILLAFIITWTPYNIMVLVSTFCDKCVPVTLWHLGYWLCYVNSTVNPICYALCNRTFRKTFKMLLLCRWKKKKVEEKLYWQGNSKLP
endpoint: Ki (nM)

[[record]]
compound_structure = "CN1CCN(C2=Nc3ccccc3Nc3ccccc32)CC1"
value_reported = 55


----------
The entries below come with measured Ki values attached.
assayed-target: hM4Di (Homo sapiens, UniProt P08173, A203G/Y113C)
Sequence (P08173 whole entry Y113C/A203G): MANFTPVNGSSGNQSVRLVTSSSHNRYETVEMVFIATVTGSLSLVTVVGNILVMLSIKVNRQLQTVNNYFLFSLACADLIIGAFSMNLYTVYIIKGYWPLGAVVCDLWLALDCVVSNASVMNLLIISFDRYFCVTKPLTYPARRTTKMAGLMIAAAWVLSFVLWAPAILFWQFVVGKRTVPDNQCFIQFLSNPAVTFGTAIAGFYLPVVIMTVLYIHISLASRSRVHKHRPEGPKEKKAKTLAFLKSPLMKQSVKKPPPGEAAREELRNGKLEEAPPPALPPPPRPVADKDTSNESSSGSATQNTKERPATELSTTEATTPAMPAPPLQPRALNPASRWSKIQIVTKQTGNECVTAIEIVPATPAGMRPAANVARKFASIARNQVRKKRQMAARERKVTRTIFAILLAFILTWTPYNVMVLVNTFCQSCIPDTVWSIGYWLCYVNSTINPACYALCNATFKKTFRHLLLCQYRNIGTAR
protocol-notes: [3H]QNB competition binding
endpoint: Ki

[[record]]
compound_structure = "CN1CCN(C2=Nc3ccccc3Nc3ccccc32)CC1"
value_reported = "0.0042 µM"

[[record]]
compound_structure = "C[N+]1([O-])CCN(C2=Nc3cc(Cl)ccc3Nc3ccccc32)CC1"
value_reported = "0.36 µM"


----------
assayed-target: hM3Dq (Homo sapiens, UniProt P20309, A239G/Y149C)
Sequence (P20309 whole entry Y149C/A239G): as the sequence (P20309 whole entry) above, with Y149C, A239G counted along it
protocol-notes: biochemical
pKi: −log10 of the molar value.
Collected pKi values appear next to each entry.
endpoint: pKi

[[record]]
compound = "c1ccc2c(c1)N=C(N1CCNCC1)c1ccccc1N2 [C21]"
value_reported = 6.07

[[record]]
compound = "CN1CCN(C2=Nc3ccccc3Nc3ccccc32)CC1 [DCZ]"
value_reported = 8.20

[[record]]
compound = "C[N+]1([O-])CCN(C2=Nc3cc(Cl)ccc3Nc3ccccc32)CC1 [CNO]"
value_reported = 6.17

